Hello, the source for this data is patent US6413607B1, in case you need it.

experiment: Decomposition point by DTA and TGA; type: physicochemical; conditions: temperature increase 10° C./min
Readout type: Decomposition point (° C.) (°C)
Give bare numbers, in °C.

Recorded results for 5 molecules are shown here.
CCCCN1C(=CC=CC2=[N+](C)c3ccc([N+](=O)[O-])cc3C2(C)C)C(C)(C)c2c1ccc1ccccc21.CCN(CC)c1ccc2c(c1)[O][Co-]1([O]c3ccc([N+](=O)[O-])cc3N=N2)[O]c2ccc([N+](=O)[O-])cc2N=Nc2ccc(N(CC)CC)cc2[O]1 = 271.3
CCCCN1C(=CC=CC2=[N+](C)c3ccc(S(=O)(=O)N(CC)CC)cc3C2(C)C)C(C)(C)c2c1ccc1ccccc21.O=[N+]([O-])c1ccc2c(c1)N=Nc1c(ccc3ccccc13)[O][Ni-]1([O]2)[O]c2ccc([N+](=O)[O-])cc2N=Nc2c(ccc3ccccc23)[O]1 = 257.3
CCCCN1C(=CC=CC2=[N+](CCCC)c3ccc([N+](=O)[O-])cc3C2(C)C)C(C)(C)c2c1ccc1ccccc21.[O-][Cl+3]([O-])([O-])[O-] = 262.4
CCCCN1C(=CC=CC2=[N+](CCC)c3ccc([N+](=O)[O-])cc3C2(C)C)C(C)(C)c2c1ccc1ccccc21.[O-][Cl+3]([O-])([O-])[O-] = 261.2
CCCCN1C(=CC=CC2=[N+](C)c3ccc(S(=O)(=O)N(CC)CC)cc3C2(C)C)C(C)(C)c2c1ccc1ccccc21.F[P-](F)(F)(F)(F)F = 273.5

Give me Decomposition point (° C.) for each of these molecules, listed below.
1. CCCCN1/C(=C/C=C/C2=[N+](CCCC)c3ccccc3C2(C)C)C(C)(C)c2c1ccc1ccccc21 [Chemical Formula 33, reference compound]
2. CCN1C(=CC=CC2=[N+](CC)c3ccc([N+](=O)[O-])cc3C2(C)C)C(C)(C)c2ccc3ccccc3c21.[O-][Cl+3]([O-])([O-])[O-]
3. CCCCN1/C(=C/C=C/C2=[N+](CCCC)c3ccc(C)cc3C2(C)C)C(C)(C)c2c1ccc1ccccc21 [Chemical Formula 34, reference compound]

1. 268.1
2. 270.7
3. 267
